- System: IGROV1 complex spheroids (HUVEC, MSC), viability % test/control
- protocol: Anticancer human tumor IGROV1 cell line growth inhibition [GQUAD];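 note: spheroids exposed to compounds for 7 days before readout; 100% = DMSO vehicle control viability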
- condition.description: second compound 0.316 µM; first compound 3.16 µM; hits give low values
measurement.kind: viability, T/C

[
  {
    "molecule": "O=C(NO)c1cnc(N2CCN(S(=O)(=O)c3ccc4ccccc4c3)CC2)nc1 + Cc1cnc(CNC(=O)c2c(=O)c3ccc(N4CCCN(C)CC4)nc3n3c2sc2ccccc23)cn1",
    "experimental.target": "IGROV1 complex spheroids (HUVEC, MSC), viability % test/control",
    "result": "0.03%"
  },
  {
    "molecule": "Nc1ccn(C2OC(CO)C(O)C2(F)F)c(=O)n1 (stereo unspecified) + Cc1[nH]c2ccc(F)cc2c1-c1nc2c3cccnc3c3ncccc3c2[nH]1",
    "experimental.target": "IGROV1 complex spheroids (HUVEC, MSC), viability % test/control",
    "result": "6.12%"
  },
  {
    "molecule": "CC1COCCN1c1cc(-c2ccnn2C)c2ccnc(-c3ccn[nH]3)c2n1 (stereo unspecified) + Cc1cnc(CNC(=O)c2c(=O)c3ccc(N4CCCN(C)CC4)nc3n3c2sc2ccccc23)cn1",
    "experimental.target": "IGROV1 complex spheroids (HUVEC, MSC), viability % test/control",
    "result": "4.14%"
  },
  {
    "molecule": "O=c1[nH]cc(F)c(=O)[nH]1 + Cc1[nH]c2ccc(F)cc2c1-c1nc2c3cccnc3c3ncccc3c2[nH]1",
    "experimental.target": "IGROV1 complex spheroids (HUVEC, MSC), viability % test/control",
    "result": "55.4%"
  },
  {
    "molecule": "COc1ccc([C@@H](O)c2cc(-c3ncnc4cc(N5CCOCC5)ccc34)c(F)cc2Cl)nn1 + Cc1cnc(CNC(=O)c2c(=O)c3ccc(N4CCCN(C)CC4)nc3n3c2sc2ccccc23)cn1",
    "experimental.target": "IGROV1 complex spheroids (HUVEC, MSC), viability % test/control",
    "result": "4.16%"
  },
  {
    "molecule": "CC(C)n1c(=O)n(C)c2cnc3cc(F)c(-c4ccc(OCCCN5CCCCC5)nc4)cc3c21 + Cc1cnc(CNC(=O)c2c(=O)c3ccc(N4CCCN(C)CC4)nc3n3c2sc2ccccc23)cn1",
    "experimental.target": "IGROV1 complex spheroids (HUVEC, MSC), viability % test/control",
    "result": "9.7%"
  },
  {
    "molecule": "O=C(c1cc(Cc2n[nH]c(=O)c3ccccc23)ccc1F)N1CCN(C(=O)C2CC2)CC1 + CN(C)c1ccc(Nc2c3ccc(NC(=O)CCN4CCCC4)cc3nc3cc(NC(=O)CCN4CCCC4)ccc23)cc1",
    "experimental.target": "IGROV1 complex spheroids (HUVEC, MSC), viability % test/control",
    "result": "54.3%"
  },
  {
    "molecule": "C#Cc1c(F)ccc2cc(O)cc(-c3ncc4c(N5CC6CCC(C5)N6)nc(OCC56CCCN5CC(F)C6)nc4c3F)c12 (stereo unspecified) + Cc1[nH]c2ccc(F)cc2c1-c1nc2c3cccnc3c3ncccc3c2[nH]1",
    "experimental.target": "IGROV1 complex spheroids (HUVEC, MSC), viability % test/control",
    "result": "58.7%"
  },
  {
    "molecule": "COc1ccc([C@@H](O)c2cc(-c3ncnc4cc(N5CCOCC5)ccc34)c(F)cc2Cl)nn1 + CN(C)c1ccc(Nc2c3ccc(NC(=O)CCN4CCCC4)cc3nc3cc(NC(=O)CCN4CCCC4)ccc23)cc1",
    "experimental.target": "IGROV1 complex spheroids (HUVEC, MSC), viability % test/control",
    "result": "17.6%"
  },
  {
    "molecule": "C=CCn1c(=O)c2cnc(Nc3ccc(N4CCN(C)CC4)cc3)nc2n1-c1cccc(C(C)(C)O)n1 + Cc1[nH]c2ccc(F)cc2c1-c1nc2c3cccnc3c3ncccc3c2[nH]1",
    "experimental.target": "IGROV1 complex spheroids (HUVEC, MSC), viability % test/control",
    "result": "2.64%"
  },
  {
    "molecule": "O=C(c1cc(Cc2n[nH]c(=O)c3ccccc23)ccc1F)N1CCN(C(=O)C2CC2)CC1 + Cc1[nH]c2ccc(F)cc2c1-c1nc2c3cccnc3c3ncccc3c2[nH]1",
    "experimental.target": "IGROV1 complex spheroids (HUVEC, MSC), viability % test/control",
    "result": "69.8%"
  }
]

###

- Tested on: IGROV1 complex spheroids (HUVEC, MSC), viability % test/control
- protocol: Anticancer human tumor IGROV1 cell line growth inhibition [GQUAD];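 note: spheroids exposed to compounds for 7 days before readout; 100% = DMSO vehicle control viability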
- condition.description: second compound 0.1 µM; first compound 0.316 µM; hits give low values
Property: viability, T/C; scope: individual compounds
measurement.kind: viability, T/C (%)

[
  {
    "compound": "CC(C)n1c(=O)n(C)c2cnc3cc(F)c(-c4ccc(OCCCN5CCCCC5)nc4)cc3c21 + CN(C)c1ccc(Nc2c3ccc(NC(=O)CCN4CCCC4)cc3nc3cc(NC(=O)CCN4CCCC4)ccc23)cc1",
    "result": 87.3
  },
  {
    "compound": "CCc1c2c(nc3ccc(O)cc13)-c1cc3c(c(=O)n1C2)COC(=O)[C@]3(O)CC + Cc1[nH]c2ccc(F)cc2c1-c1nc2c3cccnc3c3ncccc3c2[nH]1",
    "result": 1.74
  },
  {
    "compound": "C#Cc1c(F)ccc2cc(O)cc(-c3ncc4c(N5CC6CCC(C5)N6)nc(OCC56CCCN5CC(F)C6)nc4c3F)c12 (stereo not drawn) + Cc1[nH]c2ccc(F)cc2c1-c1nc2c3cccnc3c3ncccc3c2[nH]1",
    "result": 68.4
  }
]

###

- System: IGROV1 complex spheroids (HUVEC, MSC), viability % test/control
- protocol: Anticancer human tumor IGROV1 cell line growth inhibition [GQUAD]; active = viability on the fitted dose curve at most 10% of control; inactive = the rest;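 note: spheroids exposed to compounds for 7 days before readout; 100% = DMSO vehicle control viability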
- condition.description: second compound 10 µM; first compound 0.316 µM
Outcomes: active, inactive

[
  {
    "compound": "COc1ncnc(C2CC2)c1-c1ncc2cnn(Cc3ccc(-c4nc(C(F)(F)F)cn4C(C)C)cc3)c2n1 + CN(C)c1ccc(Nc2c3ccc(NC(=O)CCN4CCCC4)cc3nc3cc(NC(=O)CCN4CCCC4)ccc23)cc1",
    "class.name": "inactive"
  },
  {
    "compound": "CCc1c2c(nc3ccc(O)cc13)-c1cc3c(c(=O)n1C2)COC(=O)[C@]3(O)CC + Cc1[nH]c2ccc(F)cc2c1-c1nc2c3cccnc3c3ncccc3c2[nH]1",
    "class.name": "active"
  },
  {
    "compound": "C=CCn1c(=O)c2cnc(Nc3ccc(N4CCN(C)CC4)cc3)nc2n1-c1cccc(C(C)(C)O)n1 + Cc1[nH]c2ccc(F)cc2c1-c1nc2c3cccnc3c3ncccc3c2[nH]1",
    "class.name": "active"
  },
  {
    "compound": "CC[C@@]1(O)C(=O)OCc2c1cc1n(c2=O)Cc2cc3c(CN(C)C)c(O)ccc3nc2-1 + Cc1[nH]c2ccc(F)cc2c1-c1nc2c3cccnc3c3ncccc3c2[nH]1",
    "class.name": "active"
  },
  {
    "compound": "Cn1ncnc1[C@H]1c2n[nH]c(=O)c3cc(F)cc(c23)N[C@@H]1c1ccc(F)cc1 + Cc1cnc(CNC(=O)c2c(=O)c3ccc(N4CCCN(C)CC4)nc3n3c2sc2ccccc23)cn1",
    "class.name": "active"
  }
]

###

- Test system: IGROV1 complex spheroids (HUVEC, MSC), viability % test/control
- protocol: Anticancer human tumor IGROV1 cell line growth inhibition [GQUAD]; active means viability on the fitted dose curve at most 10% of control; inactive means the rest;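 note: spheroids exposed to compounds for 7 days before readout; 100% = DMSO vehicle control viability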
- condition.description: second compound 10 µM; first compound 1 µM
Labels: YES (active), NO (inactive)

[
  {
    "compound": "Cc1cccc(N(C)C(=O)C2C(O)CCN2c2nc(C)cc(C(F)(F)F)c2C#N)c1 (stereo not given) + Cc1[nH]c2ccc(F)cc2c1-c1nc2c3cccnc3c3ncccc3c2[nH]1",
    "class.name": "YES"
  },
  {
    "compound": "COc1cccc2c1C(=O)c1c(O)c3c(c(O)c1C2=O)CC(O)(C(=O)CO)CC3OC1CC(N)C(O)C(C)O1 (stereo not given) + Cc1cnc(CNC(=O)c2c(=O)c3ccc(N4CCCN(C)CC4)nc3n3c2sc2ccccc23)cn1",
    "class.name": "YES"
  },
  {
    "compound": "C#Cc1c(F)ccc2cc(O)cc(-c3ncc4c(N5CC6CCC(C5)N6)nc(OCC56CCCN5CC(F)C6)nc4c3F)c12 (stereo not given) + CN(C)c1ccc(Nc2c3ccc(NC(=O)CCN4CCCC4)cc3nc3cc(NC(=O)CCN4CCCC4)ccc23)cc1",
    "class.name": "NO"
  },
  {
    "compound": "CC(C)n1c(=O)n(C)c2cnc3cc(F)c(-c4ccc(OCCCN5CCCCC5)nc4)cc3c21 + CN(C)c1ccc(Nc2c3ccc(NC(=O)CCN4CCCC4)cc3nc3cc(NC(=O)CCN4CCCC4)ccc23)cc1",
    "class.name": "NO"
  },
  {
    "compound": "C#Cc1c(F)ccc2cc(O)cc(-c3ncc4c(N5CC6CCC(C5)N6)nc(OCC56CCCN5CC(F)C6)nc4c3F)c12 (stereo not given) + Cc1cnc(CNC(=O)c2c(=O)c3ccc(N4CCCN(C)CC4)nc3n3c2sc2ccccc23)cn1",
    "class.name": "YES"
  }
]
